# target: Focal adhesion kinase 1 (Homo sapiens)
# Sequence (Q05397 whole entry, the tested form may be a part): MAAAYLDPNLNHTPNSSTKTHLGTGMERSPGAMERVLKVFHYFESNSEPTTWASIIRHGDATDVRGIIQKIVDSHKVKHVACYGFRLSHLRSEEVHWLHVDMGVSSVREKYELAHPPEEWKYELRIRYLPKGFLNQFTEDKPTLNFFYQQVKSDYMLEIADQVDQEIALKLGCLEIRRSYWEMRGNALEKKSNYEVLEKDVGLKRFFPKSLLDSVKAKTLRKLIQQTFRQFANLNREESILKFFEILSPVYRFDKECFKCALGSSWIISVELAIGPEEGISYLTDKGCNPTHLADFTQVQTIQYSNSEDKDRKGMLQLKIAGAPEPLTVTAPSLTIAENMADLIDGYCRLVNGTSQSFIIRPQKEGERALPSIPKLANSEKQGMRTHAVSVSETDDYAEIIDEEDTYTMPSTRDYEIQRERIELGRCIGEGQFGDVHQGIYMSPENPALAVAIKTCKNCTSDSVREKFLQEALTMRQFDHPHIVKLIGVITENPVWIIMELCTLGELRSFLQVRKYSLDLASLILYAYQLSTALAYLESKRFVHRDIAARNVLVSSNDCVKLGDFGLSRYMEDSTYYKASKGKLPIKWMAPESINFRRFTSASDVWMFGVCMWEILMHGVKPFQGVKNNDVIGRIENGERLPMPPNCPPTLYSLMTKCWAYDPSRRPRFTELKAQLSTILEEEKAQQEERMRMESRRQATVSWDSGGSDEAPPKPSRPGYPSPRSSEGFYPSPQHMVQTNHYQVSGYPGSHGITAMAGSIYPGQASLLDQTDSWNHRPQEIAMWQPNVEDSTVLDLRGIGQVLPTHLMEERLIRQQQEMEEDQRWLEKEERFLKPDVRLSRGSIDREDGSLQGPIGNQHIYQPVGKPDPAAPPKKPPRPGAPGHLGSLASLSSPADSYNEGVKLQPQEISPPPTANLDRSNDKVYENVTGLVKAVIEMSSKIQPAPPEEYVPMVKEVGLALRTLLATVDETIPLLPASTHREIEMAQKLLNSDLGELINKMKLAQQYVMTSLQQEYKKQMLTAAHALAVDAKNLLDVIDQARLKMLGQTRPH
# assay.protocol: Inhibition of N-terminal GST-fused human truncated FAK (376 to 1052 residues) expressed in baculovirus expression system using tyrosine kinase peptide as substrate measured after 50 mins in presence of ATP by homogenous time resolved flourescence assay
pIC50: −log10 of the molar value.
Assign t whenever pIC50 does not fall below 7; assign f whenever it does.

Look over these answered cases.
>>> cat("CCOP(=O)(Cc1ccc(Nc2ncc3scc(-c4ccccc4OC)c3n2)cc1)NC (stereo not given)")
"f"
>>> cat("COc1ccccc1-c1csc2cnc(Nc3cc(F)c(C(=O)NC4CCNCC4)cc3F)nc12")
"t"

Next compound, please.
// query Exam item: decide whether the reported pIC50 for COP(=O)(Cc1ccc(Nc2ncc3scc(-c4cccc(N(C)S(C)(=O)=O)c4)c3n2)cc1)OC is at least 7.
// result f

---

# System: A549
# assay.protocol: Antiproliferative activity against human A549 cells assessed as inhibition of cell growth measured after 72 hrs by MTT assay
# Format: functional, cell-based
# applied.conditions: A549, 72 h
// NB: equality with 2000 nM counts as class 0; only IC50 strictly below is class 1

Observe how each entry below is paired with its result.
>>> cat("COc1ccccc1-c1csc2cnc(Nc3ccc(C(=O)N[C@H]4CCNC4)c(F)c3)nc12")
"class 1"
>>> cat("CCOP(=O)(Cc1ccc(Nc2ncc3scc(-c4ccccc4OC)c3n2)cc1)N1CCOCC1 (stereo not given)")
"class 1"
>>> cat("COc1cc(C(=O)NC2CCNCC2)c(F)cc1Nc1ncc2scc(-c3ccccc3OC)c2n1")
"class 1"

// query API: query returns whether the compound falls strictly under 2000 nM in IC50. Query: COc1ccccc1-c1csc2cnc(Nc3ccc(C(=O)NC[C@H]4CCCNC4)c(F)c3)nc12
// result class 0

// query is_below(IC50, 2000 nM) for CCOP(=O)(Cc1ccc(Nc2ncc3scc(-c4ccccc4OC)c3n2)cc1)NC (stereo not given) ?
// result class 1

// query Field: below-cutoff. Rule: recorded IC50 strictly less than 2000 nM. Subject: COc1cc(C(=O)NC2CCNCC2)ccc1Nc1ncc2scc(-c3ccccc3OC)c2n1
// result class 0

---

# target: Focal adhesion kinase 1 (Homo sapiens)
# assay.protocol: Inhibition of N-terminal GST-fused human truncated FAK (376 to 1052 residues) expressed in baculovirus expression system using tyrosine kinase peptide as substrate measured after 50 mins in presence of ATP by homogenous time resolved flourescence assay
readout.label: IC50
// return the numeric value with its unit appended

Recorded IC50, per entry:
>>> experimental_result("COc1cc(C(=O)NC2CCNCC2)c(F)cc1Nc1ncc2scc(-c3ccccc3OC)c2n1")
"38.2 nM"
>>> experimental_result("COP(=O)(Cc1ccc(Nc2ncc3scc(-c4cccc(C(C)=O)c4)c3n2)cc1)OC")
"351 nM"
>>> experimental_result("COc1ccccc1-c1csc2cnc(Nc3ccc(NC(=O)[C@@H]4CCCNC4)cc3)nc12")
"199 nM"
>>> experimental_result("CCOP(=O)(Cc1ccc(Nc2ncc3scc(-c4ccccc4OC)c3n2)cc1)N1CCOCC1 (stereo not given)")
"351 nM"

Now for another entry.
// query IC50 of COc1ccccc1-c1csc2cnc(Nc3ccc(C(=O)NC4CCNCC4)c(C)c3)nc12 on Focal adhesion kinase 1 (Homo sapiens)?
// result 25.7 nM

---

# Tested on: A549
# assay.protocol: Antiproliferative activity against human A549 cells assessed as inhibition of cell growth measured after 72 hrs by MTT assay
# Type: functional, cell-based
# applied.conditions: A549, 72 h
readout.label: IC50 (nM)
Answers are plain numbers, in nM.

Look over these answered cases.
>>> experimental_result("COc1ccccc1-c1csc2cnc(Nc3ccc(C(=O)NC4CCNCC4)c(C)c3)nc12")
870
>>> experimental_result("COc1ccccc1-c1csc2cnc(Nc3ccc(CP(=O)(OC)OC)cc3)nc12")
1800
>>> experimental_result("COc1ccccc1-c1csc2cnc(Nc3ccc(C(=O)NC4CCNCC4)cc3C(F)(F)F)nc12")
4110
>>> experimental_result("COc1ccccc1-c1csc2cnc(Nc3ccc(C(=O)NCC4CCNCC4)c(F)c3)nc12")
3410
>>> experimental_result("COc1ccccc1-c1csc2cnc(Nc3ccc(C(=O)NC4CCN(C)CC4)c(F)c3)nc12")
660
>>> experimental_result("COc1ccccc1-c1csc2cnc(Nc3ccc(NC(=O)[C@@H]4CCCNC4)cc3)nc12")
410

// batch mode: one IC50 value per listed entry
1. COc1ccccc1-c1csc2cnc(Nc3ccc(C(=O)N[C@@H]4CCNC4)c(F)c3)nc12
2. COc1ccccc1-c1csc2cnc(Nc3ccc(C(=O)NC4CCNCC4)cc3F)nc12
3. CNC(=O)c1ccc(Nc2ncc3scc(-c4ccccc4OC)c3n2)cc1
4. COc1ccccc1-c1csc2cnc(Nc3ccc(C(=O)NC4CCNCC4)cc3)nc12
5. CCOc1cc(C(=O)NC2CCNCC2)ccc1Nc1ncc2scc(-c3ccccc3OC)c2n1

// result
[430, 2750, 310, 360, 5770]
